Data provenance is patent US11286228B2.

The following compounds are shown together with reported CC50 at 72 h values.
assay: Cytotoxicity, MTT test in HCV replicon cells; type: cell-based
The response must be a number in µM with no trailing unit.

Field: example entries. Status: answers known.
CCCCOC(=O)c1c(C=Cc2ccc(CC(C)(C)C)cc2)cccc1CC 245
CCCCOC(=O)c1c(C)cccc1C=Cc1ccc(CC(C)(C)C)cc1 284

Next up:
Give me measured CC50 at 72 h, please, for this compound: "CCCCOC(=O)c1ccccc1C=Cc1ccc(CC(C)(C)C)cc1"
320

---

molecular target: cyclophilin; assay: Cis-trans isomerase inhibitory activity (chymotrypsin-coupled Suc-AAPF-pNA cleavage, absorbance 390 nm); assay type: biochemical; conditions: cyclophilin, chymotrypsin, Suc-AAPF-pNA; read-out: Test Example 1: cis-trans isomerase inhibitory activity (IC50)
pIC50: −log10 of the molar value.
The following compounds are shown together with reported pIC50 values.

Field: example entries. Status: answers known.
N#CC(=Cc1ccccc1OCC1CC1)c1ccc([N+](=O)[O-])cc1 6.70 to 7.70
CCCCOC(=O)c1c(C)cccc1C=C(N)c1ccc(CC(C)(C)C)cc1 6.70 to 7.70
CC(C)c1ccc(C(C#N)=Cc2ccccc2Cl)cc1 5.70 to 6.70
CCCCOC(=O)c1ccccc1C=Cc1ccc(CC(C)C)cc1 ≥ 7.70
COc1ccccc1C=C(C#N)c1ccc(C(=O)C(C)(C)C)cc1 6.70 to 7.70
COc1ccccc1C=C(C#N)c1ccc(C)c(C)c1 5.70 to 6.70

Give me measured pIC50, please, for this compound: "CCCCOC(=O)c1ncccc1C=Cc1ccc(CC(C)(C)C)cc1"
6.70 to 7.70

Give me measured pIC50, please, for this compound: "CCCCOC(=O)c1c(C)cccc1C=C(Cl)c1ccc(CC(C)(C)C)cc1"
≥ 7.70

Give me measured pIC50, please, for this compound: "CC(C)(C)Cc1ccc(C=Cc2ccccc2C(=O)O)cc1"
≥ 7.70

---

molecular target: cyclophilin; assay: Cis-trans isomerase inhibitory activity (chymotrypsin-coupled Suc-AAPF-pNA cleavage, absorbance 390 nm); format: biochemical; details: cyclophilin, chymotrypsin, Suc-AAPF-pNA; read-out: Test Example 1: cis-trans isomerase inhibitory activity (IC50)
pIC50: −log10 of the molar value.
MEASUREMENT_TYPE: pIC50

Field: example entries. Status: answers known.
MOLECULE	EXPERIMENTAL_TARGET	pIC50
CCCOC(=O)c1ccccc1C=C(C)c1ccc(CC(C)(C)C)cc1	cyclophilin	6.70 to 7.70
CCc1ccc(C(C#N)=Cc2ccccc2C(=O)O)cc1	cyclophilin	5.70 to 6.70

Give me measured pIC50, please, for this molecule: "COC(=O)c1ccccc1C=Cc1ccc(CC2CCCCC2)cc1"
6.70 to 7.70

Give me measured pIC50, please, for this molecule: "N#CC(=Cc1ccccc1C(=O)O)c1ccc(CCC2CC2)cc1"
≥ 7.70

Give me measured pIC50, please, for this molecule: CCC(C)c1ccc(C(C#N)=Cc2ccccc2C(=O)O)cc1 (stereo not shown)
6.70 to 7.70

Give me measured pIC50, please, for this molecule: "CCCCOC(=O)c1ccccc1C=C(N)c1ccc(CC2CCCCC2)cc1"
6.70 to 7.70

---

The following compounds are shown together with reported IC50 values.
Molecular target: cyclophilin
Assay: Cis-trans isomerase inhibitory activity (chymotrypsin-coupled Suc-AAPF-pNA cleavage, absorbance 390 nm)
Assay type: biochemical
Conditions: cyclophilin, chymotrypsin, Suc-AAPF-pNA; read-out: Test Example 1: cis-trans isomerase inhibitory activity (IC50)
Description: Chymotrypsin cleaves a trans-type alanine-proline peptide bond. When Suc-AAPF-pNA (a peptide substrate) and chymotrypsin are mixed, the trans-type peptide substrate is cleaved and the cis-type peptide substrate remains. […] When the cis-trans isomerase is present, chymotrypsin is able to cleave a larger amount of trans-type peptide substrate within a predetermined period of time, from which the activity of the cis-trans isomerase may be determined. […]

COMPOUND	EXPERIMENTAL_TARGET	IC50
CCCCCOC(=O)c1ccccc1C=C(Cl)c1ccc(CC(C)(C)C)cc1 [Compound 117]	cyclophilin	≤ 0.02 µM
CCCCOC(=O)c1cc(C)ccc1C=C(I)c1ccc(CC(C)(C)C)cc1 [Compound 115]	cyclophilin	≤ 0.02 µM
CCCCOC(=O)c1ccccc1C=C(C)c1ccc(CC2CCCC2)cc1 [Compound 95]	cyclophilin	0.02 to 0.2 µM
COC(=O)c1ccccc1C=Cc1ccc(CC(C)C)cc1 [Compound 129]	cyclophilin	0.02 to 0.2 µM

Give me measured IC50, please, for this compound: COC(=O)c1ccccc1C=Cc1ccc(Cc2ccccc2)cc1 [Compound 128]
0.02 to 0.2 µM

Give me measured IC50, please, for this compound: CCCCOC(=O)c1ccccc1C=Cc1ccc(CC(C)(C)C)cc1 [Compound 64]
≤ 0.02 µM
